For each of the compounds below, state its Urinary Flow Rate.
test system: Wistar rats; experiment: Subacute toxicity: water and electrolyte balance (osmolality, sodium, potassium, urinary flow); assay type: in vivo; conditions: rats, p.o., 14 days at 10% of LD50 (CCl4, APAP: once daily, 3 days); mean ± SEM, n = 6
Give bare numbers, in µL/min.

// known answers, use as guide
compound: O=C(O)c1cn2ccccc2n1 [Compound 3a, imidazo[1,2-a]pyridine-2-carboxylic acid]
readout.units: µL/min
Urinary Flow Rate: 2.20
--
compound: CCOC(=O)c1cn2ccccc2n1 [Compound 1a]
readout.units: µL/min
Urinary Flow Rate: 4.17
--
compound: N#Cc1cn2ccccc2n1 [Compound 2a, imidazo[1,2-a]pyridine-2-carbonitrile]
readout.units: µL/min
Urinary Flow Rate: 6.44

State recorded Urinary Flow Rate for all listed compounds.
1. ClC(Cl)(Cl)Cl [CCl4, carbon tetrachloride, reference compound]
2. N#Cc1nc2ccccn2c1[N+](=O)[O-] [Compound 2b]
3. CC(=O)Nc1ccc(O)cc1 [APAP, acetaminophen, reference compound]
4. O=C(O)c1nc2ccccn2c1[N+](=O)[O-] [Compound 3b]

-- reply
[6.59, 8.29, 6.19, 3.75]

Given item CCOC(=O)c1nc2ccccn2c1[N+](=O)[O-] [Compound 1b] , the value recorded as its Urinary Flow Rate is 4.54

---

test system: Wistar rats; test: Hepatic and renal reactive oxygen species (DCF formation); type: in vivo; conditions: kidney; rats, p.o., 14 days at 10% of LD50 (CCl4, APAP: once daily, 3 days); mean ± SEM, n = 6
For each of the compounds below, state its Renal ROS.
Give bare numbers, in nM de DCF/mg protein/h.

compound: N#Cc1cn2ccccc2n1 [Compound 2a, imidazo[1,2-a]pyridine-2-carbonitrile]
recorded.endpoint: Renal ROS
readout.units: nM de DCF/mg protein/h
observed: 171.33
--
compound: CCOC(=O)c1nc2ccccn2c1[N+](=O)[O-]
recorded.endpoint: Renal ROS
readout.units: nM de DCF/mg protein/h
observed: 227.17
--
compound: ClC(Cl)(Cl)Cl [CCl4, carbon tetrachloride, reference compound]
recorded.endpoint: Renal ROS
readout.units: nM de DCF/mg protein/h
observed: 333.27
--
compound: CC(=O)Nc1ccc(O)cc1 [APAP, acetaminophen, reference compound]
recorded.endpoint: Renal ROS
readout.units: nM de DCF/mg protein/h
observed: 421.62
--
compound: CCOC(=O)c1cn2ccccc2n1
recorded.endpoint: Renal ROS
readout.units: nM de DCF/mg protein/h
observed: 161.18
--
compound: N#Cc1nc2ccccn2c1[N+](=O)[O-]
recorded.endpoint: Renal ROS
readout.units: nM de DCF/mg protein/h
observed: 225.78
--
compound: O=C(O)c1cn2ccccc2n1 [Compound 3a, imidazo[1,2-a]pyridine-2-carboxylic acid]
recorded.endpoint: Renal ROS
readout.units: nM de DCF/mg protein/h
observed: 159.65

Continue with the compound presented below.
Given item O=C(O)c1nc2ccccn2c1[N+](=O)[O-] , the value recorded as its Renal ROS is 184.33

---

Test system: NIH mice
Test: Acute oral toxicity, median lethal dose (LD50)
Type: in vivo
Conditions: female NIH mice, single oral dose, 14 days observation
Procedure: All treatments were administrated orally (p.o.) according to the scheme mentioned below. Acute toxicity tests were performed in order to measure the median lethal dose (LD50). After acclimatization, mice were randomly allocated to ten groups (n = 4), including the control group (e.g. water, Tween 80, or PO) and the experimental groups, each with a single dose of one of the IMPYs at 4 levels of dose (0.5, 1.0, 2.0, and 4.0 g/kg b.w.). […]
For each of the compounds below, state its Oral LD50.
Give bare numbers, in g/kg b.w..

// known answers, use as guide
compound: N#Cc1cn2ccccc2n1 [Compound 2a, imidazo[1,2-a]pyridine-2-carbonitrile]
experimental.system: NIH mice
Oral LD50 (g/kg b.w.): 0.794
--
compound: CCOC(=O)c1cn2ccccc2n1
experimental.system: NIH mice
Oral LD50 (g/kg b.w.): 3.175

Given item N#Cc1nc2ccccn2c1[N+](=O)[O-] , the value recorded as its Oral LD50 is 1.606

---

For each of the compounds below, state its Alanine Aminotransferase.
tested on: Wistar rats; assay: Subacute toxicity: serum alanine aminotransferase and alkaline phosphatase activity; assay type: in vivo; settings: serum; rats, p.o., 14 days at 10% of LD50 (CCl4, APAP: once daily, 3 days); mean ± SEM, n = 6
Answers are plain numbers, in U/L.

// known answers, use as guide
compound: N#Cc1nc2ccccn2c1[N+](=O)[O-]
readout.units: U/L
Alanine Aminotransferase: 44.90
//
compound: O=C(O)c1nc2ccccn2c1[N+](=O)[O-]
readout.units: U/L
Alanine Aminotransferase: 32.76
//
compound: CCOC(=O)c1cn2ccccc2n1
readout.units: U/L
Alanine Aminotransferase: 22.22
//
compound: CC(=O)Nc1ccc(O)cc1 [APAP, acetaminophen, reference compound]
readout.units: U/L
Alanine Aminotransferase: 41.47
//
compound: CCOC(=O)c1nc2ccccn2c1[N+](=O)[O-]
readout.units: U/L
Alanine Aminotransferase: 30.10
//
compound: ClC(Cl)(Cl)Cl [CCl4, carbon tetrachloride, reference compound]
readout.units: U/L
Alanine Aminotransferase: 127.80
//
compound: N#Cc1cn2ccccc2n1 [Compound 2a, imidazo[1,2-a]pyridine-2-carbonitrile]
readout.units: U/L
Alanine Aminotransferase: 42.68

Continue with the compound presented below.
Given item O=C(O)c1cn2ccccc2n1 [Compound 3a, imidazo[1,2-a]pyridine-2-carboxylic acid] , the value recorded as its Alanine Aminotransferase is 25.62

---

For each of the compounds below, state its Alkaline Phosphatase.
Tested on: Wistar rats
Assay: Subacute toxicity: serum alanine aminotransferase and alkaline phosphatase activity
Assay type: in vivo
Conditions: serum; rats, p.o., 14 days at 10% of LD50 (CCl4, APAP: once daily, 3 days); mean ± SEM, n = 6
Procedure: For toxicity tests, acclimatized rats were randomly allocated to 12 groups (n = 12 for the control and n = 6 for the rest groups). […] Meanwhile, the aforementioned vehicles (dose volume 2 mL/kg b.w.) were administered to 3 groups. […] The animals were then housed in individual metabolic cages to collect urine for a period of 6 h and then the volume was recorded. […]
Give bare numbers, in U/L.

// known answers, use as guide
compound: O=C(O)c1cn2ccccc2n1 [Compound 3a, imidazo[1,2-a]pyridine-2-carboxylic acid]
experimental.system: Wistar rats
observed: 93.76

compound: N#Cc1cn2ccccc2n1 [Compound 2a, imidazo[1,2-a]pyridine-2-carbonitrile]
experimental.system: Wistar rats
observed: 104.44

compound: O=C(O)c1nc2ccccn2c1[N+](=O)[O-]
experimental.system: Wistar rats
observed: 56.63

compound: CC(=O)Nc1ccc(O)cc1 [APAP, acetaminophen, reference compound]
experimental.system: Wistar rats
observed: 151.97

State recorded Alkaline Phosphatase for all listed compounds.
1. N#Cc1nc2ccccn2c1[N+](=O)[O-]
2. CCOC(=O)c1nc2ccccn2c1[N+](=O)[O-]
3. ClC(Cl)(Cl)Cl [CCl4, carbon tetrachloride, reference compound]
4. CCOC(=O)c1cn2ccccc2n1

-- reply
1. 192.21
2. 101.41
3. 328.19
4. 93.14

---

test system: Wistar rats; assay: Subacute toxicity: water and electrolyte balance (osmolality, sodium, potassium, urinary flow); type: in vivo; conditions: rats, p.o., 14 days at 10% of LD50 (CCl4, APAP: once daily, 3 days); mean ± SEM, n = 6
For each of the compounds below, state its Filtered Load of Sodium.
Give bare numbers, in µEq/min.

// known answers, use as guide
compound: O=C(O)c1nc2ccccn2c1[N+](=O)[O-]
recorded.endpoint: Filtered Load of Sodium
readout.units: µEq/min
observed: 90.75

compound: ClC(Cl)(Cl)Cl [CCl4, carbon tetrachloride, reference compound]
recorded.endpoint: Filtered Load of Sodium
readout.units: µEq/min
observed: 592.11

compound: O=C(O)c1cn2ccccc2n1 [Compound 3a, imidazo[1,2-a]pyridine-2-carboxylic acid]
recorded.endpoint: Filtered Load of Sodium
readout.units: µEq/min
observed: 40.07

compound: N#Cc1cn2ccccc2n1 [Compound 2a, imidazo[1,2-a]pyridine-2-carbonitrile]
recorded.endpoint: Filtered Load of Sodium
readout.units: µEq/min
observed: 124.49

compound: CC(=O)Nc1ccc(O)cc1 [APAP, acetaminophen, reference compound]
recorded.endpoint: Filtered Load of Sodium
readout.units: µEq/min
observed: 147.38

State recorded Filtered Load of Sodium for all listed compounds.
1. CCOC(=O)c1cn2ccccc2n1
2. N#Cc1nc2ccccn2c1[N+](=O)[O-]
3. CCOC(=O)c1nc2ccccn2c1[N+](=O)[O-]

-- reply
1: 64.29; 2: 267.24; 3: 39.31

---

test system: Wistar rats; test: Subacute toxicity: serum and urine glucose, urinary protein excretion; format: in vivo; conditions: rats, p.o., 14 days at 10% of LD50 (CCl4, APAP: once daily, 3 days); mean ± SEM, n = 6
recorded.endpoint: Urinary Glucose Excretion
Write the quantity with the unit trailing the number.

State recorded Urinary Glucose Excretion for all listed compounds.
1. N#Cc1nc2ccccn2c1[N+](=O)[O-]
2. CCOC(=O)c1nc2ccccn2c1[N+](=O)[O-]
3. O=C(O)c1cn2ccccc2n1 [Compound 3a, imidazo[1,2-a]pyridine-2-carboxylic acid]
4. O=C(O)c1nc2ccccn2c1[N+](=O)[O-]
5. ClC(Cl)(Cl)Cl [CCl4, carbon tetrachloride, reference compound]
6. CC(=O)Nc1ccc(O)cc1 [APAP, acetaminophen, reference compound]
7. CCOC(=O)c1cn2ccccc2n1
8. N#Cc1cn2ccccc2n1 [Compound 2a, imidazo[1,2-a]pyridine-2-carbonitrile]

-- reply
["109.06 ± 24.61 ng/min", "141.87 ± 18.46 ng/min", "92.91 ± 12.35 ng/min", "262.45 ± 19.41 ng/min", "265.11 ± 89.54 ng/min", "87.10 ± 19.92 ng/min", "96.54 ± 29.03 ng/min", "136.89 ± 32.82 ng/min"]
